# Tested on: P388 leukemia ip, CD2F1 mice, survival T/C
# Method Notes: NCI In Vivo Anticancer Drug Screen. Data for tumor model P388 Leukemia (intraperitoneal) in CD2F1 (CDF1) mice
# Test Context: endpoint: median survival time; dose: 12.5 mg/kg/injection; schedule: Q01DX009 (ip); vehicle: saline with Tween-80; higher = longer survival
Inconclusive results and toxic doses are left out.
For each of the compounds below, state its T/C.

Problem: Bench note: what T/C did C[CH2][Sn]1([CH2]C)[O]OC(c2ccccc2)[O]1 (configuration not stated) show?
Solution: 173 % of control

Problem: Please look up its T/C: CCOC(=O)N(C)C(C)=O
Solution: 97 % of control

Problem: T/C for O=[N+]([O-])c1ccccc1O ?
Solution: 109 % of control

Problem: Query (compound): CN(C)CCCN1c2ccccc2Sc2ccc(C(F)(F)F)cc21 ; field requested: T/C
Solution: 123 % of control

Problem: I have this compound here, CN(C)CCOc1ccc2c(c1)CC/C(=C\c1ncc([N+](=O)[O-])n1C)C2=O , and I need its recorded T/C.
Solution: 108 % of control

Problem: Consider the compound shown here: CC1(C)OC(=O)C(CCc2ccccn2)(CCc2ccccn2)C(=O)O1 What is its recorded T/C?
Solution: 113 % of control

Problem: Quick check: T/C of O=C1NC(Cc2ccccc2)C(=O)NC1Cc1ccccc1 (configuration not stated) ?
Solution: 107 % of control

Problem: Suppose we examine the compound [I][Hg][CH2]C1COCC([CH2][Hg][I])O1.[I][Hg][CH2]C1COCC([CH2][Hg][I])O1 (configuration not stated) ; what T/C value has been reported?
Solution: 118 % of control

Problem: Which T/C value belongs to S=c1[nH]c2cc(Cl)ccc2o1 ?
Solution: 96 % of control

Problem: Given O=c1[nH]cnc2nn(C3OC(CO)C(O)C3O)cc12 (configuration not stated) , state its recorded T/C.
Solution: 101 % of control

Problem: What value of measured T/C is listed for Cc1c(O)c2c(c(O)c1Cc1ccc(C#N)cc1)C(=O)c1ccccc1C2=O ?
Solution: 91 % of control

Problem: Fill in the blank: the reported T/C of CC(=O)N/N=C/C=C/c1ccccc1 is ____.
Solution: 104 % of control

Source: PubChem BioAssay AID330
